FYI, the data here is from the RNAGym collection of RNA variant scans (doi:10.7554/elife.80360).

B1: HDV Ribozyme (parent)
chain: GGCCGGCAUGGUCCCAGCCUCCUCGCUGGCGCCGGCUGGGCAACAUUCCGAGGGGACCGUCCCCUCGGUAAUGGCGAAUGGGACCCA

Variants of: B1
measurement-protocol: self-cleavage, relative activity (ratio to wild type); higher = more cleavage; co-transcriptional

sequence-string: GGCCGGCAUUGUCCCAGCCCCCUCGCUGGCGCCGGCUGGGCAACAUUCCGAGGGGACCGUCCCCUCGGUAAUGGCGAAUGGGACCCA
self-cleavage: 0
--
sequence-string: GGCUGGCAUGGUCCCACCCUCCUCGCUGGCGCCGGCUGGGCAACAUUCCGAGGGGACCGUCCCCUCGGUAAUGGCGAAUGGGACCCA
self-cleavage: 0.147
--
sequence-string: GGCCGGCAUGGUCCCAUCCUCCUCGCUGGCGCCGGCUCGGCAACAUUCCGAGGGGACCGUCCCCUCGGUAAUGGCGAAUGGGACCCA
self-cleavage: 0.0997
--
sequence-string: GGCCGGCAUGGUCCCAGCCUCCUCGCUGGCGCCCGCUGGGCAACAUUCCGAGGGGACCGUCCCCUCGGUAAUGGCGAUUGGGACCCA
self-cleavage: 0.0475
--
sequence-string: GGCCGGCAUGGUCCCAGCCUCCUCGCUGGCGACGGCUGGGCAACAUUCCAAGGGGACCGUCCCCUCGGUAAUGGCGAAUGGGACCCA
self-cleavage: 0.136
--
sequence-string: GGCCGGCAUGGUCCCAGCCUCCUCGCUGGCUCCGGCUGGGCAACAUUCCGAGGGGACCGUCCCCUUGGUAAUGGCGAAUGGGACCCA
self-cleavage: 0.437
--
sequence-string: GGCCAGCAUGGUCCCAGCCGCCUCGCUGGCGCCGGCUGGGCAACAUUCCGAGGGGACCGUCCCCUCGGUAAUGGCGAAUGGGACCCA
self-cleavage: 0.185
--
sequence-string: GGCCGGCAUGGUCCCAGAGUCCUCGCUGGCGCCGGCUGGGCAACAUUCCGAGGGGACCGUCCCCUCGGUAAUGGCGAAUGGGACCCA
self-cleavage: 0.145
--
sequence-string: GGCCUGCAUCGUCCCAGCCUCCUCGCUGGCGCCGGCUGGGCAACAUUCCGAGGGGACCGUCCCCUCGGUAAUGGCGAAUGGGACCCA
self-cleavage: 0.462
--
sequence-string: GGCCGGAAUGGUCCCAGCCUCCUCGCUGGCGCCGGCUGGGCAACCUUCCGAGGGGACCGUCCCCUCGGUAAUGGCGAAUGGGACCCA
self-cleavage: 0.0462
--
sequence-string: GGCCGGCAUGGUCCCAGCCUUCUCGCUGGCGCCGGCUGGGCAACAUGCCGAGGGGACCGUCCCCUCGGUAAUGGCGAAUGGGACCCA
self-cleavage: 0.185
